target: ZFP SBS#352 (synthetic); assay: EMSA; conditions: tags: MBP fusion
Sequence (chain, as listed by the source): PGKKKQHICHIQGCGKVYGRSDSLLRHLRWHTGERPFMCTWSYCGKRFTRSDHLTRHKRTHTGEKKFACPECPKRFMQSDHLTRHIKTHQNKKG
assay-endpoint: pKd
// returns pKd (minus log10 of molar concentration), number only

Problem: Could you please provide reported pKd for GGAGGGGTG (dsDNA) DNA 1: GGAGGGGTG DNA 2: CACCCCTCC ? Thanks!
Solution: 7.59
